# System: CTV-1 (T-Lymphoblastic Leukemia)
# Method: combination Emax (second highest fraction inhibited in the dose matrix, 72 h); higher = more inhibition; extreme values may be limits of the assay
Quantity kind: combination Emax
Output spec: single numeric token, no unit.

| Compound | combination Emax |
| --- | --- |
| Cc1c2c(nn1C)CSCc1cc(n(C)n1)CSc1cc(c3ccccc3c1)OCCCc1c(C(=O)O)n(C)c3c-2c(Cl)ccc13 [AZD5991] + Cc1cc2ncnn2cc1Nc1ncc2c(n1)n(C1CCOCC1)c(=O)n2C [AZD7648] (first compound max 1 µM, 7x7, partner max 10 µM) | 0.29 |
| CC(=O)c1c(C)c2cnc(Nc3ccc(N4CCNCC4)cn3)nc2n(C2CCCC2)c1=O [Palbociclib] + CC1(C)CCC(CN2CCN(c3ccc(C(=O)NS(=O)(=O)c4ccc(NCC5CCOCC5)c([N+](=O)[O-])c4)c(Oc4cnc5[nH]ccc5c4)c3)CC2)=C(c2ccc(Cl)cc2)C1 [Venetoclax] (first compound max 10 µM, 7x7, partner max 1 µM) | 0.921 |

Let us examine a further case.
Enquiry: Provide one value: measured combination Emax of COc1cccc(OCCCN)c1-c1cc(Nc2cnc(C#N)cn2)n[nH]1 [Prexasertib] + CN(C)CCCOc1ccc(-c2ccc3ncc4c(c3c2)n(C2CCOCC2)c(=O)n4C)cn1 [AZD0156] (first compound max 1 µM, 7x7, partner max 1 µM)
Return: 0.988

----------
# System: KARPAS-620 (Plasma Cell Myeloma)
# Method: combination Emax (second highest fraction inhibited in the dose matrix, 72 h); higher = more inhibition; extreme values may be limits of the assay
Quantity kind: combination Emax
Output spec: single numeric token, no unit.

For orientation, consider the following solved cases.
| Molecule | Experimental value |
| --- | --- |
| CC1(C)CCC(CN2CCN(c3ccc(C(=O)NS(=O)(=O)c4ccc(NCC5CCOCC5)c([N+](=O)[O-])c4)c(Oc4cnc5[nH]ccc5c4)c3)CC2)=C(c2ccc(Cl)cc2)C1 [Venetoclax] + CN(C)CCCOc1ccc(-c2ccc3ncc4c(c3c2)n(C2CCOCC2)c(=O)n4C)cn1 [AZD0156] (first compound max 1 µM, 7x7, partner max 1 µM) | 0.989 |
| COc1cccc(OCCCN)c1-c1cc(Nc2cnc(C#N)cn2)n[nH]1 [Prexasertib] + Cc1cc2ncnn2cc1Nc1ncc2c(n1)n(C1CCOCC1)c(=O)n2C [AZD7648] (first compound max 1 µM, 7x7, partner max 10 µM) | 0.817 |
| CN(CCO)CC[C@H](CSc1ccccc1)Nc1ccc(S(=O)(=O)NC(=O)c2ccc(N3CCC([C@@H](O)c4ccccc4-c4ccc(Cl)cc4)CC3)cc2)cc1S(=O)(=O)C(F)(F)F [AZD4320] + C=CCn1c(=O)c2cnc(Nc3ccc(N4CCN(C)CC4)cc3)nc2n1-c1cccc(C(C)(C)O)n1 [AZD1775] (first compound max 1 µM, partner max 1 µM) | 1 |

Enquiry: Provide one value: measured combination Emax of C=CCn1c(=O)c2cnc(Nc3ccc(N4CCN(C)CC4)cc3)nc2n1-c1cccc(C(C)(C)O)n1 [AZD1775] + C1CN(CCC1(C(=O)N[C@@H](CCO)C2=CC=C(C=C2)Cl)N)C3=NC=NC4=C3C=CN4 [Capivasertib] (first compound max 3 µM, partner max 3 µM)
Return: 0.857

Enquiry: Provide one value: measured combination Emax of C=CCn1c(=O)c2cnc(Nc3ccc(N4CCN(C)CC4)cc3)nc2n1-c1cccc(C(C)(C)O)n1 [AZD1775] + C[C@@H]1COCCN1C2=NC(=NC(=C2)C3(CC3)[S@](=N)(=O)C)C4=C5C=CNC5=NC=C4 [AZD6738] (first compound max 1 µM, partner max 10 µM)
Return: 0.753

Enquiry: Provide one value: measured combination Emax of CC(=O)c1c(C)c2cnc(Nc3ccc(N4CCNCC4)cn3)nc2n(C2CCCC2)c1=O [Palbociclib] + Cn1cnc2c(F)c(Nc3ccc(Br)cc3Cl)c(C(=O)NOCCO)cc21 [Selumetinib] (first compound max 10 µM, 7x7, partner max 10 µM)
Return: 0.631

Enquiry: Provide one value: measured combination Emax of O=C(c1cc(Cc2n[nH]c(=O)c3ccccc23)ccc1F)N1CCN(C(=O)C2CC2)CC1 [Olaparib] + COc1nnc2ccc(N3CCC(c4ccc(OCCN5CCN(C)C(=O)[C@H]5C)cc4)CC3)nn12 [AZD5153] (first compound max 10 µM, 7x7, partner max 1 µM)
Return: 0.666

Enquiry: Provide one value: measured combination Emax of Cn1cnc2c(F)c(Nc3ccc(Br)cc3Cl)c(C(=O)NOCCO)cc21 [Selumetinib] + C=CCn1c(=O)c2cnc(Nc3ccc(N4CCN(C)CC4)cc3)nc2n1-c1cccc(C(C)(C)O)n1 [AZD1775] (first compound max 10 µM, partner max 1 µM)
Return: 0.849

Enquiry: Provide one value: measured combination Emax of COc1nnc2ccc(N3CCC(c4ccc(OCCN5CCN(C)C(=O)[C@H]5C)cc4)CC3)nn12 [AZD5153] + C[C@@H]1COCCN1C2=NC(=NC(=C2)C3(CC3)[S@](=N)(=O)C)C4=C5C=CNC5=NC=C4 [AZD6738] (first compound max 1 µM, 7x7, partner max 10 µM)
Return: 0.835
